Each recorded value in this set is attributed to patent US20240246945A1.

# System: Myzus persicae (Sulzer)
# protocolSummary: Insecticidal Activity Test 2 against Myzus persicae (Sulzer), foliar spray on potted peppers, approximately 25 ppm
# Assay type: in vivo
# conditionInfo: in Capsicum, 120 h, approximately 25 ppm drug solution in water, counted on day 5 after spraying, read-out: mortality rate rating
readout: mortality at 25 µg/mL

query: Look up mortality at 25 µg/mL with Myzus persicae (Sulzer) for this compound: CCN(C(=O)c1cnc(C2=NOC3(CCOCC3)N2C(=O)C2CC2)n1C)c1cccnc1 [Ia-1-4-12]
result: 90 to 100%

query: Look up mortality at 25 µg/mL with Myzus persicae (Sulzer) for this compound: CCN(C(=O)c1cnc(-c2noc(-c3cnco3)n2)n1C)c1cccnc1 [Ia-1-1-23]
result: 90 to 100%

query: Look up mortality at 25 µg/mL with Myzus persicae (Sulzer) for this compound: CCN(C(=O)c1cnc(C2=NOC(CC)(CC)N2)n1C)c1cccnc1 [Ia-1-4-4]
result: 90 to 100%
